- Test system: Noggin (protein binding on small-molecule microarray)
- assay notes: Noggin binders on small-molecule microarray, primary screen, biochemical, 635/667 nm fluorescence (AID 1095);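 note: score merges 667 nm feature fluorescence with signal to noise over triplicate slides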
- experimental context: 635 nm fluorescence, higher = more signal

molecule | composite z-score
CC(C)=NOCc1ccc(-c2cc(-c3ccccc3)no2)cc1 | 0.429
Cc1ccc(F)cc1S(=O)(=O)N[C@@H]1CCN(Cc2ccc(CC(C)C)cc2)C1 | -0.0204
[N-]=[N+]=NCc1ccccc1[C@@H]1OC(c2ccc(OCCCO)cc2)=N[C@]1(Cc1ccccc1)C(=O)N1CCOCC1 | 0.671
CCCC[C@@H](O)C1=C(C)C[C@H]2C(=O)N(Cc3ccccc3)C(=O)[C@H]2[C@H]1CO | 0.283
C/C=C\[C@@H](NCc1ccccc1Br)[C@@H](O)Cc1ccccc1 | -1.52
O=C1[C@H]2[C@H]3[C@H](O)[C@H](O)CC(=NO[C@@H]4O[C@H](CO)[C@@H](O)[C@H](O)[C@H]4O)[C@@H]3CC[C@H]2C(=O)N1Cc1ccccc1 | 0.574
CCCCCN1CC=CC23O[C@@H]4C=CCOC(=O)[C@@H]4[C@H]2C(=O)N(C(CO)C(C)C)[C@@H]3C1=O (stereo partly specified) | -0.433
CCOC(=O)NN=C1C[C@@H](O)[C@@H](O)[C@@H]2[C@@H]3C(=O)N(C[C@@H]4CCCO4)C(=O)[C@@H]3CC[C@@H]12 | 0.642
CCN1C(=O)[C@H]2[C@H]3[C@H](O)[C@H](O)CC(=NOCc4ccccc4)[C@H]3CC[C@H]2C1=O | 0.863
CC1CC/C=C\[C@H]2OC34C=CCN(Cn5nnc6ccccc65)C(=O)[C@H]3N(CCO)C(=O)[C@@H]4C2C(=O)O1 (stereo partly specified) | -1.08
CN(C)c1ccc(C(O)C2C=CC3C(=O)N(c4ccccc4)C(=O)C3N2Nc2ccccc2F)cc1 (stereo unspecified) | -0.318
O=C1[C@H]2[C@H]3[C@H](O)[C@H](O)CC(=NOC[C@@H](O)COCc4ccco4)[C@H]3CC[C@H]2C(=O)N1C1CCCCC1 | 1.19
C=CC[C@@H]1C=C[C@H](ON=C(C)CCN2CCc3nc(CC)c(CC)cc3C2)[C@@H](CO)O1 | 0.981
COC(=O)[C@@]1(Cc2ccc(OC)cc2)[C@H]2c3cc(C(=O)N4CCCC4)n(Cc4cc(F)c(F)c(F)c4)c3C[C@H]2CN1C(=O)c1ccccc1 | -0.131
O=C1CCCC2OC12C(O)CCc1ccccc1 (stereo unspecified) | 0.373
C#CCCCON=C1C[C@@H](O)[C@@H](O)[C@@H]2[C@@H]3C(=O)N(CCC(=O)OCC)C(=O)[C@@H]3CC[C@@H]12 | -1.1
CCCC=C(CCC)[C@@H](NC(=O)c1ccc(-c2ccccc2)cc1)c1ccc(C(=O)OC)cc1 | 0.0811
CCCCc1nc2c(c3c1C[C@H](C)OC3)CN(CCC(C)C)CC2 | 0.582
CC(CCC(=O)OC[C@H]1O[C@H](C#Cc2ccccc2)C=C[C@@H]1Oc1ccc(C)cc1)=NO[C@@H](C)c1cn([C@H](CO)Cc2ccccc2)nn1 | 0.237
COC(=O)[C@@]1(Cc2ccc(F)cc2)[C@@H]2C(=CC(=O)[C@H]2CC(=O)C(=O)N(C)C)CN1C(=O)c1ccccc1 | 0.171
CO[C@H]1COC(=O)CC=C[C@H](C)[C@@H](NS(=O)(=O)c2ccc(C)cc2)COC(=O)CC=C[C@@H]1C | 0.659
C[C@@H]1CCC2C(=O)N(Cc3ccccc3)C[C@@H](O)CN2[C@H]1c1ccc(Br)cc1 (stereo partly specified) | 0.542
COC(=O)c1c(CC[C@@H](CO)NC(=O)N[C@H](Cc2ccccc2)Cn2cc(-c3ccccc3N)nn2)oc(C(C)=O)c1C(=O)OC | 0.173
COc1ccc(OC[C@H]2Cc3c(-c4ccccc4)nc4c(c3CO2)CN(CCOc2ccccc2)CC4)cc1 | 0.476
C=C(/C(=C/C[C@H](OC(=O)c1ccncc1)c1ccc(OCCO)cc1)c1cnc2ccccc2c1)C(C)C | 1.48
CCCNC(=O)OC[C@H]1O[C@H](CCON=C2[C@H]3CCn4c(=O)n(-c5ccccc5)c(=O)n4[C@H]3[C@H](O)[C@@H]3O[C@H]23)C=C[C@@H]1Oc1ccc(OC)cc1 | 0.388
CCN1C(=O)[C@H]2[C@H]3[C@H](O)[C@H](O)CC(=NOCC=C(C)CCC=C(C)C)[C@H]3CC[C@H]2C1=O | 1.32
COCCCNC(=O)[C@]1(Cc2ccccc2)N=C(c2ccc(OCCCO)cc2)O[C@@H]1c1ccccc1 | 0.468
O=C1[C@H]2[C@H]3[C@H](O)[C@H](O)CC(=NOC[C@@H](O)COCc4ccco4)[C@H]3CC[C@H]2C(=O)N1Cc1ccc2c(c1)OCO2 | 0.154
CCOC(=O)CCN1C(=O)[C@H]2[C@H]3[C@H](O)[C@H](O)CC(=NOC[C@@H](O)COCc4ccco4)[C@@H]3CC[C@H]2C1=O | -0.298
COC(=O)C1=C(C)[C@@H](O)[C@@H](C)[C@H](c2c(OC)c(OC)c(C)c(OC)c2OC)O1 | 0.461
